// data source = patent US11214803B2

Tested on: Yap1 mRNA
Test: Antisense inhibition of human Yap1 in A-431 cells by cEt gapmers, single dose (Example 3, RTS36584)
Format: cell-based
Details: Table 28; Yap1 mRNA as percent of untreated control; 3-10-3 cEt gapmers targeting SEQ ID NO.: 1, and 2
Strand notation (5' to 3'): a small letter for the sugar, then the base; units joined by * are phosphorothioate-linked, units joined directly phosphodiester-linked; [ ] holds rarer units or linkages, { } end groups; capitals alone tell only the bases. k = constrained ethyl (cEt); [5mC] = 5-methylcytosine; d = 2'-deoxy (DNA)
Returns one of Criterion met or Criterion not met; Criterion met when YAP1 (% UTC) is >= 60 % UTC.

Is YAP1 (% UTC) at least 60 % UTC? Consider 1075918 (antisense k[5mC]*kT*kT*dA*dA*dA*d[5mC]*dT*dA*dA*d[5mC]*dT*dG*kT*kT*kG) [compound 1075918]
Criterion met

Would you say 1074126 (k[5mC]*kT*kG*dG*d[5mC]*dG*dG*d[5mC]*dT*dG*d[5mC]*dG*d[5mC]*k[5mC]*kT*k[5mC]; antisense) [compound 1074126] shows YAP1 (% UTC) at minimum 60 % UTC?
Criterion met

Check if YAP1 (% UTC) >= 60 % UTC (inclusive). Item: 1074286 (antisense kT*kG*kA*dT*dT*d[5mC]*dT*d[5mC]*dT*dG*dG*dT*dT*k[5mC]*kA*kT) [compound 1074286]
Criterion not met

Check if YAP1 (% UTC) >= 60 % UTC (inclusive). Item: 1076398 (antisense k[5mC]*kT*kT*dG*dA*dA*dG*dG*dG*d[5mC]*dT*dA*dT*kG*kG*kA) [compound 1076398]
Criterion met

Could you verify whether the entry 1075598 (antisense kA*kA*kT*dT*dA*dA*d[5mC]*dA*dT*dT*dT*dG*d[5mC]*k[5mC]*k[5mC]*kG) [compound 1075598] shows YAP1 (% UTC) of no less than 60 % UTC?
Criterion met

For this substance, is measured YAP1 (% UTC) 60 % UTC or higher? 1076270 (kT*kA*kA*d[5mC]*dA*dA*dT*dA*dG*dT*dA*dG*dA*k[5mC]*kG*kA; antisense) [compound 1076270]
Criterion not met
